I'd appreciate it if you could supply EC50 values for the items below.
# Assay Target: CHOK1 cells engineered to overexpress human CCR2 (Homo sapiens, UniProt P41597)
# Construct: expressed in transfected cells; host or cells: CHOK1 cells
# Test: Antibody dependent cellular cytotoxicity (ADCC) reporter assay (Example 199)
# Assay type: cell-based
# Conditions: with anti-cotinine antibody SEQ ID NO: 11/12; CHOK1-human CCR2 target cells, Jurkat FcγRIIIa NFAT-luciferase reporter cells; 12-18 hours; read-out: ADCC Reporter Assay pEC50 (converted)

Provide reported EC50 for each item, in the same order as listed.
1. CC(C)N(C)[C@@H]1CC[C@H](N2CC[C@H](Nc3ncnc4ccc(C(F)(F)F)cc34)C2=O)[C@H](NC(=O)[C@H]2CC[C@@H](NC(=O)CCOCCCOCCCNC(=O)[C@H]3CC(=O)N(C)[C@@H]3c3cccnc3)CC2)C1
2. CC(C)N(C)[C@@H]1CC[C@H](N2CC[C@H](Nc3ncnc4ccc(C(F)(F)F)cc34)C2=O)[C@H](NC(=O)[C@H]2CC[C@@H](NC(=O)COCCOCCNC(=O)CCNC(=O)[C@H]3CC(=O)N(C)[C@@H]3c3cccnc3)CC2)C1
3. CC(C)N(C)[C@@H]1CC[C@H](N2CC[C@H](Nc3ncnc4ccc(C(F)(F)F)cc34)C2=O)[C@H](NC(=O)C2CCN(C3CCN(C(=O)CCCCCNC(=O)[C@H]4CC(=O)N(C)[C@@H]4c4cccnc4)CC3)CC2)C1
4. CC(C)N(C)[C@@H]1CC[C@H](N2CC[C@H](Nc3ncnc4ccc(C(F)(F)F)cc34)C2=O)[C@H](NC(=O)C2CCN(C(=O)CCOCCOCCOCCNC(=O)[C@H]3CC(=O)N(C)[C@@H]3c3cccnc3)CC2)C1

a:
0.251 nM
0.479 nM
3.98 nM
12.6 nM
